Listed here: items and their measured Top (MFI).
Biological target: T1, human AMHRII (anti-Mullerian hormone receptor type 2) (human, UniProt Q16671 18-573)
T1 construct: whole, on cells; also called AMHR2; human AMHR2
T1 sequence (looked up): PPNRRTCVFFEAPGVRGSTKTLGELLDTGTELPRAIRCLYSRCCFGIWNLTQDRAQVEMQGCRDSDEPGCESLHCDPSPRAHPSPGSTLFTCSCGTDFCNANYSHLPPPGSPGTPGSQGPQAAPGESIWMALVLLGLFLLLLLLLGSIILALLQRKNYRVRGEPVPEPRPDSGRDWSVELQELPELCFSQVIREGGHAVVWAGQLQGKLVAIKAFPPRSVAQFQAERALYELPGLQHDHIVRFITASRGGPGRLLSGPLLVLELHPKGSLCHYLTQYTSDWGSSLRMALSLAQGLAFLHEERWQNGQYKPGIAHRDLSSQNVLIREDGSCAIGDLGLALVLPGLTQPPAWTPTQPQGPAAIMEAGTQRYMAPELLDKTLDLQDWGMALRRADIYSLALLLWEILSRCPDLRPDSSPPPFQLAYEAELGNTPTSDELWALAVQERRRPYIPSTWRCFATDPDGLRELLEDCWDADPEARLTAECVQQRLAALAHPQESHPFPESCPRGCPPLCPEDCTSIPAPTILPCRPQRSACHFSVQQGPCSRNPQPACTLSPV
Experiment: FACS on Rko cells over-expressing human AMHR2
Note: unit MFI is implicit; provide only the numeric part.

binder="xi31D9B3 hIgG1 (antibody, V domains shown, Murine variable domains in human chimeric format, human IgG1; also called xi31D9B3 hlgG1; 31D9B3 hlgG1) VH: QVKLLQSGAALVKPGASVKMSCKASGYTFTDYWVSWVKQSHGKSLEWIGEIYPKNGVSNFNEKFKGKATLTVDKSTSTAYMELRRLTSEDSAIFYCTRQRDYWGQGVMVTVSS VL: DVVLTQTPGSLSVTLGDQASISCRSSQSLEYGDGYTYLEWYLQKPGQSPQLLIYGVSNRFSGVPDRFIGSGSGTDFTLKISRVEPEDLGVYYCFQATHDPNTFGAGTKLELK" recorded_value=8360

query: Can you share its Top (MFI)? I mean this binder: xi35D4G3 hIgG1 (antibody, V domains shown, Murine variable domains in human chimeric format, human IgG1; also called 35D4G3 (chimeric)) VH: QVRLLQSGAALVKPGASAKMSCKASGYTFTDYWVSWVKQSHGKSLEWIGEIYPDNGITNFNEKFKGKATLTVDKSTRTAYMELSRLTSEDSAIYYCTRQRDYWGQGVMVTVSS VL: DVVLTQTPGSLSVTLGDQVSISCRSSQSLKYGDGYTYLEWYLQKPGQSPQLLFYGVSNRFSGVPDRFIGSGSGTDFTLKISRVEPEDLGVYYCFQATHDPNTFGTGTKLDLK
result: 8290

query: Can you share its Top (MFI)? I mean this binder: xi114A2B5 hIgG1 (antibody, V domains shown, Murine variable domains in human chimeric format, human IgG1; also called 114A2B5 (chimeric)) VH: DVQLQESGPGLVKPSQSLSLTCTVTGYSITSDYAWNWIRQFPGNKLEWMGYISYSGSTSYNPSLKSRISITRDTSKNQFFLQLNSVTTEDTATYYCARSRYSWFDYWGQGTLVTVSA VL: DIVLTQSPASLAVSLGQRATLSCRASESVDTYGNSFMHWYQQKPGQSPKLLIYRASSLESGIPARFSGSGSRTDFTLTINPVEAADVATYYCQQSNEDPYTFGGGTKLEIK
result: 8330
